Read-out: Peroxisomal acyl-coenzyme A oxidase 1 (ACOX1) gene, ACOX1 (gene 51)
Assay: LTEA_HepaRG_ACOX1: Life Technologies and Expression Analysis (LTEA) Assay for Peroxisomal acyl-coenzyme A oxidase 1 (ACOX1) gene using HepaRG (AID 2283467)
Conditions: mRNA level, 48 h; actives raise or lower the signal
Calls of active or inactive are those of the source. How the source made its calls: active means hit-call score of the fitted dose curve at least 0.9, where 1 is the maximum; inactive means score below 0.9.
One label from this list, please: active, inactive

# COMPOUND, GROUP_LABEL
measured = [
    ("Cn1cnc2c1c(=O)[nH]c(=O)n2C", "inactive"),
    ("CC1=C(C)S(=O)(=O)CCS1(=O)=O", "inactive"),
    ("CCCCCCC(CCCCCCCCCCC(=O)OCC(COC(C)=O)OC(C)=O)OC(C)=O (stereo not given)", "inactive"),
    ("Nc1nc(Cl)nc2c1ncn2[C@H]1C[C@H](O)[C@@H](CO)O1", "active"),
]

QUERY: Which outcome was entered for the compound COC(=O)[C@H]1[C@H]2C[C@@H]3c4[nH]c5cc(OC)ccc5c4CCN3C[C@H]2C[C@@H](OC(=O)c2cc(OC)c(OC)c(OC)c2)[C@@H]1OC in this test?
RESULT: active

QUERY: Which outcome was entered for the compound C/C=C/C=C/C(=O)O in this test?
RESULT: inactive

QUERY: Which outcome was entered for the compound O=C1CCCCC1 in this test?
RESULT: inactive

QUERY: Which outcome was entered for the compound Cc1cn([C@H]2C=C[C@@H](CO)O2)c(=O)[nH]c1=O in this test?
RESULT: inactive

QUERY: Which outcome was entered for the compound O=C(Oc1ccccc1)c1cccc(C(=O)Oc2ccccc2)c1 in this test?
RESULT: inactive

QUERY: Which outcome was entered for the compound O=Cc1ccccc1C=O in this test?
RESULT: inactive

QUERY: Which outcome was entered for the compound NC1CCCCC1 in this test?
RESULT: inactive

QUERY: Which outcome was entered for the compound CCc1cc(C2=C(C(=O)O)N(c3ccccc3C(F)(F)F)S(=O)(=O)c3ccccc32)cc2c1OCO2 in this test?
RESULT: inactive

QUERY: Which outcome was entered for the compound Oc1ccc(O)cc1 in this test?
RESULT: inactive

QUERY: Which outcome was entered for the compound Cc1cc(SC2=C(O)C[C@@](CCc3ccc(N)cc3)(C(C)C)OC2=O)c(C(C)(C)C)cc1CO in this test?
RESULT: inactive

QUERY: Which outcome was entered for the compound O=C(NS(=O)(=O)/C=C/c1cccs1)c1ccc(F)cc1Br in this test?
RESULT: inactive

QUERY: Which outcome was entered for the compound CCCC[C@H]1CN(CC2CCOCC2)C(=O)OC12CCN(C1(C)CCN(C(=O)c3c(C)ncnc3C)CC1)CC2 in this test?
RESULT: inactive

----------
Assay: CEETOX_H295R_OHPROG_noMTC: CeeTox H295R High-throughput Steroidogenesis Assay for OH-Progesterone (OHPROG), maximum tolerated concentration (MTC) filtered results only (AID 2283914)
Settings: actives raise or lower the signal
Calls of active or inactive are those of the source. The calls were made as follows: active = hit-call score of the fitted dose curve at least 0.9, where 1 is the maximum; inactive = score below 0.9.
One label from this list, please: yes (active), no (inactive)

These recorded examples may help you get a feel for the data.
# STRUCTURE_AS_SMILES, GROUP_LABEL
measured = [
    ("O=C(Oc1ccccc1)c1cccc(C(=O)Oc2ccccc2)c1", "no"),
    ("NC(=Nc1ccccc1)Nc1ccccc1", "no"),
    ("Nc1nc(=S)c2[nH]cnc2[nH]1", "yes"),
]

QUERY: Which outcome was entered for the molecule C=CCc1ccc(OC)c(OC)c1 in this test?
RESULT: no

----------
Read-out: Macrophage colony-stimulating factor (MCSF), CSF1 (gene 1435)
Assay: BSK_CASM3C_MCSF: BioMAP Diversity Plus: CASM3C Assay for Macrophage colony-stimulating factor (MCSF) Biomarker Activity (AID 2283044);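 further: M-CSF protein amount quantified by ELISA after 24 h exposure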
Details: primary human coronary artery smooth muscle cells; actives raise or lower the signal
The source made the active and inactive calls. Rule for the calls: active = hit-call score of the fitted dose curve at least 0.9, where 1 is the maximum; inactive = score below 0.9.
QUANTITY_KIND: outcome

# MOLECULE, outcome
rows = [
    ("CC(=O)O", "inactive"),
    ("O=C(Oc1ccccc1)c1cccc(C(=O)Oc2ccccc2)c1", "inactive"),
    ("CCCCOC(=O)CCCCC(=O)OCCCC", "inactive"),
    ("CC(=O)OC1CC(C)OC(C)O1 (stereo not given)", "inactive"),
    ("Nc1nc(=S)c2[nH]cnc2[nH]1", "inactive"),
    ("CCCCCCCCCCCCCCCCO", "inactive"),
    ("CCCCCCCCCCCCCCOS(=O)(=O)O", "inactive"),
    ("O=C1OC(c2ccc(O)cc2)(c2ccc(O)cc2)c2ccccc21", "inactive"),
]

Entry CCCCCCCCCC[N+](C)(C)[O-] ; outcome = inactive

Entry NC=O ; outcome = inactive

----------
Read-out: CYP2C9 (gene 1559)
Assay: LTEA_HepaRG_CYP2C9: Life Technologies and Expression Analysis (LTEA) Assay for CYP2C9 using HepaRG (AID 2283484)
Details: mRNA level, 48 h; actives raise or lower the signal
Calls of active or inactive are those of the source. How the source made its calls: active means hit-call score of the fitted dose curve at least 0.9, where 1 is the maximum; inactive means score below 0.9.
One label from this list, please: yes (1) (active), no (0) (inactive)

These recorded examples may help you get a feel for the data.
# MOLECULE, GROUP_LABEL
measured = [
    ("CCCC[C@H]1CN(CC2CCOCC2)C(=O)OC12CCN(C1(C)CCN(C(=O)c3c(C)ncnc3C)CC1)CC2", "no (0)"),
    ("C/C=C/c1ccc(OC)cc1", "no (0)"),
    ("NCCOCCOCCN", "no (0)"),
    ("CCN(CC)CCOc1ccc(C(=C(Cl)c2ccccc2)c2ccccc2)cc1", "yes (1)"),
    ("Cc1ccc(-c2cc(C(F)(F)F)nn2-c2ccc(S(N)(=O)=O)cc2)cc1", "no (0)"),
]

QUERY: Which outcome was entered for the molecule CC(=O)O[C@]1(C(C)=O)CC[C@H]2[C@@H]3C=C(Cl)C4=CC(=O)[C@@H]5C[C@@H]5[C@]4(C)[C@H]3CC[C@@]21C in this test?
RESULT: yes (1)

QUERY: Which outcome was entered for the molecule CC(C)c1cccc(C(C)C)c1 in this test?
RESULT: no (0)

----------
Test: ATG_CMV_CIS: Attagene CIS-FACTORIAL HepG2 Assay for human CMV (Internal Marker) (AID 2282928);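 further: endpoint acts as a background internal control marker rather than a target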
Settings: HepG2 CMV promoter reporter, transcription factor profiling; actives raise or lower the signal
The source made the active and inactive calls. The calls were made as follows: active = hit-call score of the fitted dose curve at least 0.9, where 1 is the maximum; inactive = score below 0.9.
One label from this list, please: active, inactive

These recorded examples may help you get a feel for the data.
# COMPOUND, GROUP_LABEL
records = [
    ("O=C(N[C@@H](c1ccccc1)[C@@H]1CCCCN1)c1cccc(C(F)(F)F)c1Cl", "active"),
    ("Oc1ccccc1O", "active"),
]

QUERY: Which outcome was entered for the compound CS(=O)(=O)c1ccc([C@@H](C[C@H]2CCC(=O)C2)C(=O)Nc2cnccn2)cc1Cl in this test?
RESULT: inactive

QUERY: Which outcome was entered for the compound Cc1c(C)c2c(c(C)c1O)CCC(C)(COc1ccc(CC3SC(=O)NC3=O)cc1)O2 (stereo unspecified) in this test?
RESULT: inactive

QUERY: Which outcome was entered for the compound Cc1cn([C@H]2C=C[C@@H](CO)O2)c(=O)[nH]c1=O in this test?
RESULT: inactive

QUERY: Which outcome was entered for the compound C=CCCCCCCCCCCCC in this test?
RESULT: active

----------
Read-out: Tumor necrosis factor receptor 1 (TNFRSF1A), TNFRSF1A (gene 7132)
Assay: LTEA_HepaRG_TNFRSF1A: Life Technologies and Expression Analysis (LTEA) Assay for Tumor necrosis factor receptor 1 (TNFRSF1A) using HepaRG (AID 2283535)
Settings: mRNA level, 48 h; actives raise or lower the signal
Active and inactive are the calls of the source. The calls were made as follows: active = hit-call score of the fitted dose curve at least 0.9, where 1 is the maximum; inactive = score below 0.9.
One label from this list, please: Yes = active, No = inactive

These recorded examples may help you get a feel for the data.
# MOLECULE, GROUP_LABEL
measured = [
    ("CCCCCCCCCC[N+](C)(C)[O-]", "No"),
    ("C/C=C/c1ccc(OC)cc1", "No"),
    ("CCCCCCC(CCCCCCCCCCC(=O)OCC(COC(C)=O)OC(C)=O)OC(C)=O (stereo not drawn)", "No"),
]

QUERY: Which outcome was entered for the molecule CCCCCCCCCCCCCCCCO in this test?
RESULT: No

QUERY: Which outcome was entered for the molecule CCN(CC)CCOc1ccc(C(=C(Cl)c2ccccc2)c2ccccc2)cc1 in this test?
RESULT: No

QUERY: Which outcome was entered for the molecule O=C1CCCCC1 in this test?
RESULT: Yes

----------
Assay: BSK_3C_TissueFactor: BioMAP Diversity Plus: 3C Assay for Tissue Factor Biomarker Activity (AID 2282997)
Conditions: BioMAP 3C HUVEC, tissue factor biomarker readout; actives raise or lower the signal
Activity calls are given as the source filed them. The calls were made as follows: active = hit-call score of the fitted dose curve at least 0.9, where 1 is the maximum; inactive = score below 0.9.
One label from this list, please: active, inactive

QUERY: Which outcome was entered for the compound COC(=O)[C@H]1[C@H]2C[C@@H]3c4[nH]c5cc(OC)ccc5c4CCN3C[C@H]2C[C@@H](OC(=O)c2cc(OC)c(OC)c(OC)c2)[C@@H]1OC in this test?
RESULT: active

These measurements were taken from PubChem BioAssay (EPA / NIEHS).
